system: 556581-035-R-J1 tumor spheroid viability, % test/control; test: Anticancer human tumor 556581-035-R-J1 patient-derived ovarian carcinoma cell line growth inhibition; conditions: second compound 0.003 µM; first compound 3 µM; stronger effect = lower value; spheroids with HUVEC and MSC;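 further: spheroids exposed to compounds for 7 days before viability read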
TEST READOUT: viability, T/C (%)
One number for each entry, in %.

Record excerpt, results attached:
# COMPOUND, ASSAY RESULT
records = [
    ("CNCc1ccc(-c2cc(-c3nc(-c4ccc(S(=O)(=O)C(C)C)cc4)cnc3N)on2)cc1 + COc1cc2c(cc1O)CCNC21CSC2c3c(OC(C)=O)c(C)c4c(c3C(COC1=O)N1C(O)C3Cc5cc(C)c(OC)c(O)c5C(C21)N3C)OCO4", 0.33),
    ("Cn1ncnc1[C@H]1c2n[nH]c(=O)c3cc(F)cc(c23)N[C@@H]1c1ccc(F)cc1 + COc1cc2c(cc1O)CCNC21CSC2c3c(OC(C)=O)c(C)c4c(c3C(COC1=O)N1C(O)C3Cc5cc(C)c(OC)c(O)c5C(C21)N3C)OCO4", 1.68),
    ("CNCc1ccc(-c2cc(-c3nc(-c4ccc(S(=O)(=O)C(C)C)cc4)cnc3N)on2)cc1 + CC[C@@]1(O)C(=O)OCc2c1cc1n(c2=O)Cc2cc3c(CN(C)C)c(O)ccc3nc2-1", 13.7),
    ("Cc1sc2c(c1C)C(c1ccc(Cl)cc1)=NC(CC(=O)Nc1ccc(O)cc1)c1nnc(C)n1-2 (stereo not given) + COc1cc2c(cc1O)CCNC21CSC2c3c(OC(C)=O)c(C)c4c(c3C(COC1=O)N1C(O)C3Cc5cc(C)c(OC)c(O)c5C(C21)N3C)OCO4", 1.24),
]

Which measured viability, T/C value corresponds to O=C(c1cc(Cc2n[nH]c(=O)c3ccccc23)ccc1F)N1CCN(C(=O)C2CC2)CC1 + COc1cc2c(cc1O)CCNC21CSC2c3c(OC(C)=O)c(C)c4c(c3C(COC1=O)N1C(O)C3Cc5cc(C)c(OC)c(O)c5C(C21)N3C)OCO4 ?
1.14
